Target: recombinant human CL receptor/RAMP1 (Homo sapiens, UniProt O60894+Q16602)
Construct: membranes
Sequence (Q16602 23-461): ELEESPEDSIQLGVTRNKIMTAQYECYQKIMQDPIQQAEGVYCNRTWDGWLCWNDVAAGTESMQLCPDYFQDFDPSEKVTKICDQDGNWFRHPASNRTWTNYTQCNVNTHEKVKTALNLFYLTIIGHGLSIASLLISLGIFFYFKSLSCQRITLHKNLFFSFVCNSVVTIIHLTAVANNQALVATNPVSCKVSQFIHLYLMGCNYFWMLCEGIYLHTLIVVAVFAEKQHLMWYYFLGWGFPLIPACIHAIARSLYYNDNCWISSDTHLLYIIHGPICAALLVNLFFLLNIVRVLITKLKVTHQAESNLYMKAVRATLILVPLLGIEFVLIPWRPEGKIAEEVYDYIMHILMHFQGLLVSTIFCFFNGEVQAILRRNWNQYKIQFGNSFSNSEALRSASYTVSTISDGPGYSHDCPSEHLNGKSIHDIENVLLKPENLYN
Sequence (O60894 27-148): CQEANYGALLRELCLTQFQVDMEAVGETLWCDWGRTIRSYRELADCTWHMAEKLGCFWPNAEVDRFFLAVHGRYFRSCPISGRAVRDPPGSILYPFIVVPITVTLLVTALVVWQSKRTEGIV
Assay: Recombinant receptor binding assay (125I-hCGRP, membranes of HEK 293 cells)
Conditions: 10 pM 125I-hCGRP
assay readout: pKi
To interpret pKi, take it as minus log10 of a concentration measured in moles per litre.

Lab note: measured pKi of O=C(Cn1c(-c2ccccc2)c(Cl)nc(N2CCCC2)c1=O)Nc1ccc2c(c1)CC1(C2)C(=O)Nc2ncccc21 (stereo not shown) was 6.89
